Assay: qHTS Assay for Lipid Storage Modulators (AID 1519); further: on the % scale 0 is the no-effect control and ±100 the full control effect
Conditions: Drosophila S3 cells, BODIPY lipid droplet/cell ratio, laser cytometry; at 57.5 µM (top of the series); cells loaded with oleic acid
Inconclusive results are not listed.

{"Smiles representation": "Cc1ccc(O)cc1", "activity change, negative = inhibition / %": 6.36}
{"Smiles representation": "COC(=O)c1c(Cl)c(Cl)c(C(=O)OC)c(Cl)c1Cl", "activity change, negative = inhibition / %": 5.84}
{"Smiles representation": "Cc1cc(C(C)(C)C)c(O)c(C(C)(C)C)c1", "activity change, negative = inhibition / %": 4.82}
{"Smiles representation": "OCc1c[nH]c2ccccc12", "activity change, negative = inhibition / %": 3.03}
{"Smiles representation": "Cn1cnc2c(NCc3ccccc3)nc(NCCO)nc21", "activity change, negative = inhibition / %": -0.56}
{"Smiles representation": "Nc1c2ccccc2nc2ccccc12", "activity change, negative = inhibition / %": -13.1}

* * *

System: NIH3T3
Assay: Cytotoxic Profiling of Annotated Libraries Using Quantitative High-Throughput Screening (AID 1296008); further: on the % scale 0 is the no-effect control and ±100 the full control effect; nearly all actives have a fitted effect of over 60% in size
Conditions: Five cell lines viability, CellTiter-Glo ATP luminescence, 48-72 h; stronger effect = lower value
Records with an inconclusive call do not appear.
Endpoint label: max response (%)

{"Molecule": "CCCc1ccc(OCC(=O)N2CCN(C(=O)COc3ccc(CCC)cc3OC)CC2)c(OC)c1", "Measured value": 0.399}
{"Molecule": "CC(C)(C)c1cc(C=O)cc(C(C)(C)C)c1O", "Measured value": 1.57}
{"Molecule": "CC(C)C(C)(C)C(C)(C)C(C)(C)S", "Measured value": -4.3}
{"Molecule": "CC(=O)O[C@@H]1CC2C3CCc4cc(OC(=O)c5ccccc5)ccc4C3CCC2(C)[C@H]1OC(C)=O (stereo partly specified)", "Measured value": 3.57}
{"Molecule": "Cc1onc(-c2c(Cl)cccc2Cl)c1C(=O)Cl", "Measured value": -2.46}
{"Molecule": "O=C(NO)c1ccccc1", "Measured value": -4.92}
{"Molecule": "O=C(O)[C@H](O)[C@@H](O)[C@H](O[C@@H]1O[C@H](CO)[C@H](O)[C@H](O)[C@H]1O)[C@H](O)CO", "Measured value": -0.868}
{"Molecule": "O=C(NN1CCCC1)NS(=O)(=O)c1ccc(Cl)cc1", "Measured value": 4.71}
{"Molecule": "CCCOc1ccc2c(c1)CC[C@@H]1[C@@H]2CC[C@]2(C)C(OC)CC[C@@H]12 (stereo partly specified)", "Measured value": 0.167}
{"Molecule": "CN(C)CCOC(c1ccccc1)c1ccc(Br)cc1 (stereo unspecified)", "Measured value": -1.24}
{"Molecule": "Oc1ccc(CCNCCCCCCNCCc2ccccc2)cc1O", "Measured value": -5.45}

* * *

Assay: MultiTox-Fluor Cytotoxicity Assay - LYMP1-002 - Live Cells (AID 955);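 further: cells exposed to compound for 16 hours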
Details: LYMP1-002 lymphoblastoid live-cell protease fluorescence viability; series mostly up to 46.1 µM
Results filed as inconclusive are left out. Active and inactive are the calls of the source. Calls come from the whole dose curve; as a rule, active = well fitted cell-killing curve with a large enough effect; inconclusive = small, poorly fitted or top-dose-only effect, or effect the other way; inactive = flat fitted curve, though single readings scatter.
Outcomes: active, inactive

{"Compound": "CCCCC(CC)COC(=O)c1ccccc1C(=O)O (stereo not drawn)", "Label value": "inactive"}
{"Compound": "Nc1c2ccccc2nc2ccccc12", "Label value": "inactive"}
{"Compound": "Nc1ccc(O)cc1", "Label value": "active"}
{"Compound": "Nc1cccc2c(N)cccc12", "Label value": "inactive"}
{"Compound": "O=C(NO)c1ccccc1", "Label value": "inactive"}
{"Compound": "CC(C)(c1ccc(O)cc1)c1ccc(O)cc1", "Label value": "inactive"}
{"Compound": "Cc1cc(C(C)(C)C)c(O)c(C(C)(C)C)c1", "Label value": "inactive"}
{"Compound": "Brc1ccccc1-c1ccccc1", "Label value": "inactive"}
